experimentSummary: Displacement of [125I]-[D-Tyr6,beta-Ala11,Phe13,Nle14]-Bombesin(6-14) from dog BRS3
Parameters: species or system Canis lupus familiaris
quantityMeasured: pIC50
Keep in mind that pIC50 stands for -log10 of concentration in molar terms.

Per the record, Cc1ccc2c(c1C)N(S(=O)(=O)c1ccc(C(C)(C)C)cc1)Cc1ccc(C(F)(F)F)nc1N2 has pIC50 of 8.80

====

target: Bombesin receptor subtype-3 (Homo sapiens, UniProt P32247)
Sequence (P32247 whole entry): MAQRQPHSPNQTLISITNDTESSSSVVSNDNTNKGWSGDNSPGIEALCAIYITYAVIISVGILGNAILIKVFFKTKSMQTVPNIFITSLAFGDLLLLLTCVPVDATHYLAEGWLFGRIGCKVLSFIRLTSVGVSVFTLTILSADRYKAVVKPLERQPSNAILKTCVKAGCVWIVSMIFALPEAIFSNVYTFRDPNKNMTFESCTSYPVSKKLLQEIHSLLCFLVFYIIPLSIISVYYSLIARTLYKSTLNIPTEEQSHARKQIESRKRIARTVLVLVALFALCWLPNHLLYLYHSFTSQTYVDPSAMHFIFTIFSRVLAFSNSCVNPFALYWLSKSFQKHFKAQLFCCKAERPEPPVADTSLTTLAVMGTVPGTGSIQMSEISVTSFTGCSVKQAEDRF
experimentSummary: Displacement of [125I]-[D-Tyr6,beta-Ala11,Phe13,Nle14]-Bombesin(6-14) from human BRS3 expressed in CHO cells expressing NFAT after 2 hrs by liquid scintillation counting
Below: a set of entries, each annotated with reported log10 IC50.
log10 IC50, nM

These solved cases illustrate the format of a correct answer.
>>> df
                    compoundstructurestring  quantitymeasured  number
0  Cc1ccc2c(c1)N(S(=O)(=O)c1ccc(C(C)(C)C)cc1)Cc1ccc(C(F)(F)F)nc1N2        log10 IC50    0.76
1  Cc1ccc2c(c1C)N(S(=O)(=O)c1ccc(C(C)(C)C)cc1)Cc1cccnc1N2        log10 IC50    1.60
2  Cc1ccc2c(c1C)N(S(=O)(=O)c1ccc(OC(F)(F)F)cc1)Cc1ccc(C(F)(F)F)nc1N2        log10 IC50    0.52
3  Cc1ccc2c(c1C)N(S(=O)(=O)c1ccc(C(C)(C)C)cc1)Cc1ccc(C#N)nc1N2        log10 IC50    0.64

CC(C)(C)c1ccc(S(=O)(=O)N2Cc3ccc(C(F)(F)F)nc3Nc3ccccc32)cc1 yielded log10 IC50 of 0.74

Reported log10 IC50 for Cc1ccc2c(c1C)N(S(=O)(=O)c1ccc(C(C)(C)F)cc1)Cc1ccc(C(F)(F)F)nc1N2 was 0.76

====

experimentSummary: Half life in rhesus monkey
Type: ADME, organism-based, Macaca mulatta
conditionSet: in vivo
quantityMeasured: half-life (h)
Please respond with the number in h and leave the unit unwritten.

Per the records, this molecule ( Cc1ccc2c(c1C)N(S(=O)(=O)c1ccc(C(C)(C)C)cc1)Cc1ccc(C(F)(F)F)nc1N2 ) has half-life equal to 1.8

====

experimentSummary: Agonist activity at rhesus monkey BRS3
Format: functional, Macaca mulatta
quantityMeasured: EC50 (nM)
Could you give me the number in nM? Just the number is fine.

Lookup result for Cc1ccc2c(c1C)N(S(=O)(=O)c1ccc(C(C)(C)C)cc1)Cc1ccc(C(F)(F)F)nc1N2 ; measured EC50: 70

====

experimentSummary: Oral bioavailability in rhesus monkey
Assay type: ADME, organism-based, Macaca mulatta
conditionSet: in vivo
quantityMeasured: bioavailability (%)
Give just the number in %; leave the unit off.

The compound Cc1ccc2c(c1C)N(S(=O)(=O)c1ccc(C(C)(C)C)cc1)Cc1ccc(C(F)(F)F)nc1N2 showed bioavailability equal to 17

====

experimentSummary: Inhibition of calcium channel Diltiazem hydrochloride binding site
quantityMeasured: IC50

The reported value for Cc1ccc2c(c1C)N(S(=O)(=O)c1ccc(C(C)(C)C)cc1)Cc1ccc(C(F)(F)F)nc1N2 in terms of IC50 is > 10 µM

====

target: Nuclear receptor subfamily 1 group I member 2 (Homo sapiens)
Sequence (O75469 whole entry): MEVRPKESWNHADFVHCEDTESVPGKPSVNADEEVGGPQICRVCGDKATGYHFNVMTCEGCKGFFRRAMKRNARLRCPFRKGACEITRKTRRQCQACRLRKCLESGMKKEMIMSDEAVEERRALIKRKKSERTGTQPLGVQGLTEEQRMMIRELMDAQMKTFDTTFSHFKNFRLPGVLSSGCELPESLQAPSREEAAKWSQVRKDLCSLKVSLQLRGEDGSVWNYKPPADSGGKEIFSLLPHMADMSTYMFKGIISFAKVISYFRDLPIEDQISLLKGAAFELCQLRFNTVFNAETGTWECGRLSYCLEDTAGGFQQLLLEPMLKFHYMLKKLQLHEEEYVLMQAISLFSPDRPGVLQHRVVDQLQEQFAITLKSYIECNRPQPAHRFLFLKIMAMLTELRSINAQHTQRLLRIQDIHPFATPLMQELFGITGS
experimentSummary: Activation of human PXR
quantityMeasured: pEC50
Remember, pEC50 is on a log scale: it is -log10 of the molar concentration.

Reported pEC50 for Cc1ccc2c(c1C)N(S(=O)(=O)c1ccc(C(C)(C)C)cc1)Cc1ccc(C(F)(F)F)nc1N2 was 6.17

====

The entries below come with measured pIC50 values attached.
target: Bombesin receptor subtype-3 (Homo sapiens)
experimentSummary: Displacement of [125I]-[D-Tyr6,beta-Ala11,Phe13,Nle14]-Bombesin(6-14) from human BRS3 expressed in CHO cells expressing NFAT after 2 hrs by liquid scintillation counting
Format: cell-based
The scale used: pIC50 is minus the common logarithm of the concentration in molar units.

Look over these answered cases.
                    compoundstructurestring  number
0  Cc1ccc2c(c1C)N(S(=O)(=O)c1ccc(C(C)(C)C)cc1)Cc1cc(Cl)cnc1N2    6.37
1  Cc1ccc2c(c1C)N(S(=O)(=O)c1ccc(C(C)(C)C)cc1)Cc1cc(F)c(Cl)nc1N2    8.05
2  Cc1ccc2c(c1C)N(S(=O)(=O)c1csc(C(F)(F)F)c1)Cc1ccc(C(F)(F)F)nc1N2    7.85

Looking up CC(C)(C)c1ccc(S(=O)(=O)N2Cc3ccc(C(F)(F)F)nc3Nc3ccc(C(C)(C)O)c(F)c32)cc1 , I see its pIC50 listed as 8.30

====

target: Bombesin receptor subtype-3 (Mus musculus)
experimentSummary: Agonist activity at mouse BRS3 expressed in HEK293 cells expressing aequorin measured for 30 secs by bioluminescence assay relative to [125I]-[D-Tyr6,beta-Ala11,Phe13,Nle14]-Bombesin(6-14)
Format: functional, cell-based
quantityMeasured: max activation

Examples with their reported max activation follow.
>>> df
                    compoundstructurestring  result
0  Cc1ccc2c(c1C)N(S(=O)(=O)c1ccc(C(C)(C)C)cc1)Cc1ccc(Cl)nc1N2    105%
1  Cc1ccc2c(c1C)N(S(=O)(=O)c1ccc(C(F)(F)F)cc1)Cc1ccc(C(F)(F)F)nc1N2    100%
2  Cc1cccc2c1N(S(=O)(=O)c1ccc(C(C)(C)C)cc1)Cc1ccc(C(F)(F)F)nc1N2    106%

Query compound follows.
// field: max activation; key: Cc1ccc2c(n1)Nc1ccc(C)c(C)c1N(S(=O)(=O)c1ccc(C(C)(C)C)cc1)C2 ; value = 107%

====

target: Bombesin receptor subtype-3 (Mus musculus, UniProt O54798)
Sequence (O54798 whole entry): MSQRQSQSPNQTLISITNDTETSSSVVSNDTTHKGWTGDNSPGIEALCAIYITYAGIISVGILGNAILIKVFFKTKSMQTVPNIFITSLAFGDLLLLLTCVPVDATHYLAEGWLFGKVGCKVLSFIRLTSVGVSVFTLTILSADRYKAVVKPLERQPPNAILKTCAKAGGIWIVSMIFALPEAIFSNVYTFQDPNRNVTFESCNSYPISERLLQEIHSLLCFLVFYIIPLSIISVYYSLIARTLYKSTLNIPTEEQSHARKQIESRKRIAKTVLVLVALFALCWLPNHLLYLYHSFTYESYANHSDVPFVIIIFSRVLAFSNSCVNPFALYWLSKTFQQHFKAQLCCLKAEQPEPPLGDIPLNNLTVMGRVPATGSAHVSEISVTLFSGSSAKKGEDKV
experimentSummary: Agonist activity at mouse BRS3 expressed in HEK293 cells expressing aequorin measured for 30 secs by bioluminescence assay
Measured pEC50 values are reported for all entries that follow.
Would you please state pEC50, meaning minus log10 of the concentration in mol/L, as a bare number?

>>> print(df.to_string())
                    compoundstructurestring  quantitymeasured  number
0  Cc1ccc2c(n1)N(S(=O)(=O)c1ccc(C(C)(C)C)cc1)Cc1ccc(C(F)(F)F)nc1N2             pEC50    6.77
1  Cc1ccc2c(c1C)N(S(=O)(=O)c1ccc(C(C)(C)C)cc1)Cc1ccc(Cl)nc1N2             pEC50    7.01
2  Cc1ccc2c(c1C)N(S(=O)(=O)c1csc(C(F)(F)F)c1)Cc1ccc(C(F)(F)F)nc1N2             pEC50    7.02

The compound Cc1ccc2c(c1C)N(S(=O)(=O)c1ccc(OC(F)(F)F)cc1)Cc1ccc(C(F)(F)F)nc1N2 on Bombesin receptor subtype-3 (Mus musculus, UniProt O54798): pEC50 was 7.10

pEC50 value, target or system Bombesin receptor subtype-3 (Mus musculus, UniProt O54798), for CC(C)(C)c1ccc(S(=O)(=O)N2Cc3ccc(C(F)(F)F)nc3Nc3ccc4ncccc4c32)cc1 : 6.89

# Cc1ccc2c(c1C)N(S(=O)(=O)c1ccc(S(C)(=O)=O)cc1)Cc1ccc(C(F)(F)F)nc1N2 with Bombesin receptor subtype-3 (Mus musculus, UniProt O54798): pEC50 is 6.25

Known value: Bombesin receptor subtype-3 (Mus musculus, UniProt O54798) pEC50 of the compound Cc1ccc2c(n1)Nc1ccc(C)c(C)c1N(S(=O)(=O)c1ccc(C(C)(C)C)cc1)C2 equals 6.63

Query Cc1ccc2c(c1C)N(S(=O)(=O)c1ccc(C(C)(C)F)cc1)Cc1ccc(C(F)(F)F)nc1N2 on Bombesin receptor subtype-3 (Mus musculus, UniProt O54798); pEC50 returned: 6.70

====

target: PXR (Homo sapiens, UniProt O75469)
Sequence (O75469 whole entry): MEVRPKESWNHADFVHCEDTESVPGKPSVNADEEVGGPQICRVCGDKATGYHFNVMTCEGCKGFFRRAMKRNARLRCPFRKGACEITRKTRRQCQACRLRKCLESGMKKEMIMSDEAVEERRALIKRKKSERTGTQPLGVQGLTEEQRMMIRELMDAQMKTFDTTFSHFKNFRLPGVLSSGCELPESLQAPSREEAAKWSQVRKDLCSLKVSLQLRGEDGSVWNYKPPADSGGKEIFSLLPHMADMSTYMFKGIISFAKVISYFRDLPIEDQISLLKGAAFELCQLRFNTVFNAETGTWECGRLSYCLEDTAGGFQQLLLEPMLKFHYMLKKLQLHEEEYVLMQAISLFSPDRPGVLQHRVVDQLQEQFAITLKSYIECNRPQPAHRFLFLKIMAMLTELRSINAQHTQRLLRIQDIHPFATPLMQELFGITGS
experimentSummary: Activation of human PXR at 10 uM relative to control
conditionSet: read-out: Activity
quantityMeasured: activity at 10 µM (%)
Express the result in % but write the number alone.

The reported activity at 10 µM of the molecule Cc1ccc2c(c1C)N(S(=O)(=O)c1ccc(C(C)(C)C)cc1)Cc1ccc(C(F)(F)F)nc1N2 was 42
